target: Leucine-rich repeat serine/threonine-protein kinase 2 (Homo sapiens, UniProt Q5S007, G2019S); experiment: Inhibition of LRRK2 G2019S mutant (unknown origin) by adapta assay
observable: pIC50
Lab note: report pIC50 as minus log10 of the concentration in molar units, number only.

Note to self: pIC50 recorded for CC1(Oc2ccc3[nH]nc(-c4cc(N5CCN(CCOCCOCCOCCOc6ccc7c(c6)C(=O)N(C6CCC(=O)NC6=O)C7=O)CC5)ncn4)c3c2)CC1 (stereo unspecified) was 9.01

---

target: Protein cereblon/Leucine-rich repeat serine/threonine-protein kinase 2 (Homo sapiens, UniProt Q5S007+Q96SW2); assay: PROTAC activity at CRBN/wild type HiBit tagged-LRRK in HEK293 cells assessed as LRRK2 degradation by Nano-Glo dual-luciferase reporter assay
pEC50: −log10 of the molar value.
observable: pEC50

Note to self: pEC50 recorded for C[C@H]1CN(c2cc(-c3n[nH]c4ccc(OC5(C)CC5)cc34)ccn2)CCN1CCOCCOCCOCCOc1ccc2c(c1)C(=O)N(C1CCC(=O)NC1=O)C2=O (stereo partly specified) was > 8.00

---

target: von Hippel-Lindau disease tumor suppressor/Leucine-rich repeat serine/threonine-protein kinase 2 (Mus musculus, UniProt P40338+Q5S006, R1441C); assay: PROTAC activity at VHL/LRRK2 R1441C mutant in mouse bone marrow derived macrophages assessed as induction of LRRK2 degradation; assay type: cell-based, BMDM
Sequence (P40338 whole entry, stated change not applied): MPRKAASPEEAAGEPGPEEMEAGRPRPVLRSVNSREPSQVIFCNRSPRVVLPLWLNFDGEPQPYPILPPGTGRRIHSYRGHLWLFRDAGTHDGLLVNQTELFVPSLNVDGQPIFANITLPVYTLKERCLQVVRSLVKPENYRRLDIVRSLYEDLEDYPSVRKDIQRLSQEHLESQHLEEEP
Sequence (Q5S006 whole entry R1441C, stated change not applied): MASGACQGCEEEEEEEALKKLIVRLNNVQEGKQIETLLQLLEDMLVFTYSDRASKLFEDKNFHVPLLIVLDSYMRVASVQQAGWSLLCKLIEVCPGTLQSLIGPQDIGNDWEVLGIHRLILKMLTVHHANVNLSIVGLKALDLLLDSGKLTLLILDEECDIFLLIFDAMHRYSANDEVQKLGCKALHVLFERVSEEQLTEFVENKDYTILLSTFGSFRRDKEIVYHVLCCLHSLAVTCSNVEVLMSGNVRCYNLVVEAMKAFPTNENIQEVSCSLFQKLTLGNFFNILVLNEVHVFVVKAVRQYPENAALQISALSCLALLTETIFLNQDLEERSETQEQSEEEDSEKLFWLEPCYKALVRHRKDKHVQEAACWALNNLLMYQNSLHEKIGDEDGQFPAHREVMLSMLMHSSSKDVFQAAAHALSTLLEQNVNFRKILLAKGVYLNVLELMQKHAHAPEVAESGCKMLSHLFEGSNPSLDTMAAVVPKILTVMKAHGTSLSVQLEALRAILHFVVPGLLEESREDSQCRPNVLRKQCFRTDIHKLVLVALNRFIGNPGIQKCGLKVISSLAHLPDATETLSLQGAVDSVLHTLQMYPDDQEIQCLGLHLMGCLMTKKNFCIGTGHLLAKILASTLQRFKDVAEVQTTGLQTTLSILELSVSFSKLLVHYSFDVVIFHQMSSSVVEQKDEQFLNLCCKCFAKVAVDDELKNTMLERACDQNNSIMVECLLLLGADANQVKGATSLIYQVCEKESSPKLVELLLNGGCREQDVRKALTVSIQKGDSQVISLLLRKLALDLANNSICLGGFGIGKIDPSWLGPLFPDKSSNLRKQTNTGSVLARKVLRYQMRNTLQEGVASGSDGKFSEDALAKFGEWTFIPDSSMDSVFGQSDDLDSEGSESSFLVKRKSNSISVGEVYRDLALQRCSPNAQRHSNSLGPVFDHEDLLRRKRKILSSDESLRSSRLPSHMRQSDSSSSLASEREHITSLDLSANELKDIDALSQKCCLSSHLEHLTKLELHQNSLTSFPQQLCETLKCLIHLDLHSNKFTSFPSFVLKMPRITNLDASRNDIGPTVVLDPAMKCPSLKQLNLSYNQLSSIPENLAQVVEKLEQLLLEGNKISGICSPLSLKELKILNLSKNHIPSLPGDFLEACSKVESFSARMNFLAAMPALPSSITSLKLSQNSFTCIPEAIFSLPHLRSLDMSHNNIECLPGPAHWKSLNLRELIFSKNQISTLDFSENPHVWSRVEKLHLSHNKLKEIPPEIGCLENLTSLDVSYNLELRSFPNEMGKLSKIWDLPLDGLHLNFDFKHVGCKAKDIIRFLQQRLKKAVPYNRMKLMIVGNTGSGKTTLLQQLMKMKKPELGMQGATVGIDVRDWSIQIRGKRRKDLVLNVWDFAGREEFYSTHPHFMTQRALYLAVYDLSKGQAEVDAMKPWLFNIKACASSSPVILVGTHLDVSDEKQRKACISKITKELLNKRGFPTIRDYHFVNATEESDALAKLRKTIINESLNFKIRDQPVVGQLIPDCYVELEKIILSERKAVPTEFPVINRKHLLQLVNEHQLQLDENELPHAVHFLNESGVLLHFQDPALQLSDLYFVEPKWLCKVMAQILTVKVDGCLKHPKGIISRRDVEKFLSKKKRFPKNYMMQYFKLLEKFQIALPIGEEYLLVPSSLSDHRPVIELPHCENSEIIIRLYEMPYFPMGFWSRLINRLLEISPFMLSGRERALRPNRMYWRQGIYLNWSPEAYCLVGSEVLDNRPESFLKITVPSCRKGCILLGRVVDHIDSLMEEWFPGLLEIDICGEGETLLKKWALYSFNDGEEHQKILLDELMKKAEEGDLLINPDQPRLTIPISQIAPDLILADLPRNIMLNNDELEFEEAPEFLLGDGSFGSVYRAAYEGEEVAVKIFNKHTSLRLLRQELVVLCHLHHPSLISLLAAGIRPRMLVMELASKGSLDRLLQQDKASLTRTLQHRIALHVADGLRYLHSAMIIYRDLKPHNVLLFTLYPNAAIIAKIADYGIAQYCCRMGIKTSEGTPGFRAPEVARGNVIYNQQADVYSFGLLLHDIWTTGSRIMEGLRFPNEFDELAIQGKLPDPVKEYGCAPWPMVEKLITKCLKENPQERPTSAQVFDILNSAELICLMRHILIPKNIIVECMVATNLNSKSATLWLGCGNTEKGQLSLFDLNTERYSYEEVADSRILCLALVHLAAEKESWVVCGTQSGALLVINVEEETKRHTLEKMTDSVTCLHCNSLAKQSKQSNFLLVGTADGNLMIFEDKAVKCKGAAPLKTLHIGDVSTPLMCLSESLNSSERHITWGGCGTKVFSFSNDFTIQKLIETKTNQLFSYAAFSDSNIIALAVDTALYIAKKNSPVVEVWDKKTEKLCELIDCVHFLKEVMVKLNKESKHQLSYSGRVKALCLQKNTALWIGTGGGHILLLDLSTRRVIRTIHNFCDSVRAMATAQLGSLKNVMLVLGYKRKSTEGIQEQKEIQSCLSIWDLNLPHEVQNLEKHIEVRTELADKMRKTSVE
observable: pEC50
Lab note: report pEC50 as minus log10 of the concentration in molar units, number only.

Note to self: pEC50 recorded for "CNc1nc(Nc2ccc(C(=O)N3CCN(C[C@H]4CC[C@H](CSC(C)(C)[C@H](NC(=O)C5(F)CC5)C(=O)N5C[C@@H](O)C[C@@H]5C(=O)NCc5ccc(-c6scnc6C)cc5)CC4)CC3)cc2OC)ncc1Cl" was 7.82
